System: Human immunodeficiency virus 1
Assay Method Text: Antiviral activity against HIV1 MN infected in human C8166 cells assessed as reduction in antigen gp120 production by ELISA
Type: functional, organism-based
Experimental Context: Human immunodeficiency virus 1, MN
Measured Parameter: EC50 (µg/mL)

*Q* Please look at this molecule and report its EC50: COc1cc(O[C@@H]2O[C@H](CO[C@@H]3O[C@@H](C)[C@H](O)[C@@H](O)[C@H]3O)[C@@H](O)[C@H](O)[C@H]2O)c2c(O)c3c(=O)oc(C)cc3c(OC)c2c1
*A* 30

[A] COc1cc(O[C@@H]2O[C@H](CO[C@@H]3O[C@H](CO)[C@@H](O)[C@H](O)[C@H]3O)[C@@H](O)[C@H](O)[C@H]2O)c2c(O)c3c(=O)oc(C)cc3c(OC)c2c1
[B] COc1cc(O[C@@H]2O[C@H](CO)[C@@H](O)[C@H](O)[C@H]2O)c2c(O)c3c(=O)oc(C)cc3c(OC)c2c1
[C] Cc1cn([C@H]2C[C@H](N=[N+]=[N-])[C@@H](CO)O2)c(=O)[nH]c1=O
[D] COc1cc(O[C@@H]2O[C@H](CO[C@@H]3OC[C@H](O)[C@H](O)[C@H]3O)[C@@H](O)[C@H](O)[C@H]2O)c2c(O)c3c(=O)oc(C)cc3c(OC)c2c1
*Q* Given 4 molecules, produce a descending ranking by EC50. I'd appreciate it if you listed the labels in the requested order.
*A* A, B, D, C
